// values below are reported pull-down binding Z-score
Test system: TO-N3-2 (biotin conjugate)
Test: pull-down binding Z-score (relative to library population); higher = stronger binding
Assay Setup: RNA library: Library-2
Keep the answer to the number alone.

Exercise: pull-down binding Z-score lookup needed for GUGUGUUACCUAGAAAUAGCACU [hsa-mir-378a] , thanks.
Key: -0.118

Please examine the following record next.
Exercise: pull-down binding Z-score lookup needed for GUUGUAGACGGUUGUAAUUCAUCAACUUGUAUGAUGUGUUACAAACGUAAUAGAGCAAC , thanks.
Key: -0.288

----------
Tested on: TO-3-N3 (biotin conjugate)
Test: pull-down binding Z-score (relative to library population); higher = stronger binding
Assay Setup: RNA library: Library-2
// values below are reported pull-down binding Z-score
Keep the answer to the number alone.

Exercise: pull-down binding Z-score lookup needed for GCUGGUGACAUUGCUAAUUCAUUUCACACCAGC [hsa-mir-4293] , thanks.
Key: -0.991

Exercise: pull-down binding Z-score lookup needed for AGUGCUAGGACACU [hsa-mir-374c] , thanks.
Key: -0.441

Exercise: pull-down binding Z-score lookup needed for GGGGAGAGGGACACGCCCUGGGCUCUGCCCAGGGUGCAGCCGGACUGACUGAG [hsa-mir-1225] , thanks.
Key: 1.55

Exercise: pull-down binding Z-score lookup needed for CUGCAGGGACUGUGACACUGAA [hsa-mir-6816] , thanks.
Key: -0.0339

Exercise: pull-down binding Z-score lookup needed for GAGAGUGCUGUCUGAAUGCAAUGC [hsa-mir-500a] , thanks.
Key: 0.797

---
Exercise: pull-down binding Z-score lookup needed for AAUGACUCAUAGUCAA [hsa-mir-4475] , thanks.
Key: 0.512

Exercise: pull-down binding Z-score lookup needed for ACAAUGGCAGACCUCGUCUAUGCUUUAAGGCAUUUUGAUGAAGGUAAUUGU , thanks.
Key: -0.812

Exercise: pull-down binding Z-score lookup needed for UGGGAUUAUCCUA [DMSMaPseq_invitro_SARS-CoV-2_Motif_276] , thanks.
Key: 0.251
